Rule: flash point below 70 °C gives met. Equal to or above 70 °C gives not met.

C[Si]1(C)O[Si](C)(C)O[Si](C)(C)O[Si](C)(C)O[Si](C)(C)O[Si](C)(C)O1; not met

(Q) Quick check: does CC(=O)C=C(C)C [4-methylpent-3-en-2-one] have flash point under 70 °C?
(A) met

###

Tick True if flash point is 60 °C or greater. Tick False if flash point is less than 60 °C.

These recorded examples may help you get a feel for the data.
COC(C)(C)C; False
CCCCCCC(C)=O; False
O=C(O)c1ccccc1O [2-hydroxybenzoic acid]; True
Cc1ccccc1; False
O=C=Nc1ccccc1; False
Cc1c(N=C=O)cccc1N=C=O; True

Consider the record given below.
(Q) Textbook exercise: given the entry CCC(CO)(CO)CO [2-ethyl-2-(hydroxymethyl)propane-1,3-diol] , state whether its flash point is greater than or equal to 60 °C.
(A) True

###

Rule: flash point below 30 °C gives yes. Equal to or above 30 °C gives no.

These recorded examples may help you get a feel for the data.
C=CCOC(C)=O [Allyl acetate]; yes
CCCCCCC(C)=O [2-Octanone]; no
CCCC(=O)O [Butyric acid]; no
CCC(CC)(CC)CC [Pentane, 3,3-diethyl-]; yes
NCCCN [1,3-Diaminopropane]; no

Consider the record given below.
(Q) Quick check: does CCCCCCCCCCCCCCO [1-Tetradecanol] have flash point under 30 °C?
(A) no

###

Below, each entry is listed with its recorded flash point.
A number alone suffices; assume °C.

Worked examples follow.
Cc1cccc(O)c1; 94.00
CCC(C)C; -51.00
NCCCN; 24.00
CC(O)C#N (stereo unspecified); 77.00
FC(F)=C(F)Cl; -27.00

The record that follows has no flash point shown yet.
GET /value?item= CCN(CC)c1ccccc1 &field=flash point returns 85.00

###

Rule: flash point below 30 °C gives Fulfilled. Equal to or above 30 °C gives Not fulfilled.

These recorded examples may help you get a feel for the data.
C#CCO; Not fulfilled
CC(C)OC(C)C; Fulfilled
CCc1ccc(C)nc1; Not fulfilled
ClC=C(Cl)CCl; Not fulfilled
CC(=O)C(C)(C)C; Fulfilled

Consider the record given below.
(Q) Quick check: does CCCCCCCCOP(=O)(O)OCCCCCCCC [dioctyl hydrogen phosphate] have flash point under 30 °C?
(A) Not fulfilled

###

Below, each entry is listed with its recorded flash point.
A complete answer gives the number and then names the unit.

Worked examples follow.
CC[Si](CC)(CC)CC [Tetraethylsilane]; 26 °C
C=C[Si](C)(C)O[Si](C)(C)C [Vinylpentamethyldisiloxane]; 12 °C

GET /value?item= CO[Si](CCCNCCN)(OC)OC [Aminoethylaminopropyltrimethoxysilane] &field=flash point returns 96 °C

GET /value?item= CN(C(=O)C(F)(F)F)[Si](C)(C)C [N-Methyl-N-trimethylsilyltrifluoroacetamide] &field=flash point returns 25 °C

GET /value?item= C[Si](C)(C)N=C=N[Si](C)(C)C [Bis(trimethylsilyl)carbodiimide] &field=flash point returns 42 °C

GET /value?item= C[Si](C)(C)OB(O[Si](C)(C)C)O[Si](C)(C)C [Tris(trimethylsiloxy)boron] &field=flash point returns 42 °C

###

measurement name: flash point (°C)
A number alone suffices; assume °C.

Worked examples follow.
CCCSSCC [ethylpropyldisulfide]; 57
CCCCC=O [pentanal]; 8
CCCCN [butylamine]; -7
C#CCCCCC#C [1,7-octadiyne]; 23
CC(C)CCOCCC(C)C [diisopentylether]; 46

GET /value?item= OCCc1ccccc1 [2-phenylethanol] &field=flash point returns 102

GET /value?item= CC(C)(C)CCC(C)(C)C [2,2,5,5-tetramethylhexane] &field=flash point returns 16
